Entry source: patent US20230416329A1

Exercise: for every item that follows, state its recorded Residual trypsin activity.
Target: bovine trypsin (Bos taurus, UniProt P00760)
Sequence (P00760 24-246): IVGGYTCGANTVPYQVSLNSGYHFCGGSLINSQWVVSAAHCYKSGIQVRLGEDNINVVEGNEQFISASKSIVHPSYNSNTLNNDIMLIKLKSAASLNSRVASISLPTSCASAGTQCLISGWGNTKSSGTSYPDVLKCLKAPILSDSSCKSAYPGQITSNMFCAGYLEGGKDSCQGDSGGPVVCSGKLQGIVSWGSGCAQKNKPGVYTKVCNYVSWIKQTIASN
Experiment: Trypsin inhibitory activity of peptides (BApNA hydrolysis, OD405; IC50, Ki, residual activity)
Format: biochemical
Settings: peptide 0.098 μM
Bridge positions count the residues as written; N and C are the ends. Peptide text beside a SMILES is read from it.
One number for each entry, in %.

Parameters: items (list). Returns: Residual trypsin activity for each item.
1. CC[C@H](C)[C@@H]1NC(=O)[C@@H]2CCCN2C(=O)[C@@H]2CCCN2C(=O)[C@H]([C@@H](C)CC)NC(=O)[C@H](CO)NC(=O)[C@H](CCCCN)NC(=O)[C@H]([C@@H](C)O)NC(=O)[C@H](CCC(N)=O)NC(=O)[C@H](CCCNC(=N)N)NC(=O)CNC(=O)[C@@H](N)CSSC[C@@H](C(=O)N[C@@H](Cc2ccccc2)C(=O)O)NC1=O [BT54] (H-CGRQTKSIPPICF-OH; disulfide 1-12; C-terminus assumed)
2. CC[C@H](C)[C@@H]1NC(=O)[C@@H]2CCCN2C(=O)[C@@H]2CCCN2C(=O)[C@H]([C@@H](C)CC)NC(=O)[C@H](CO)NC(=O)[C@H](CCCCN)NC(=O)[C@H]([C@@H](C)O)NC(=O)[C@@H](NC(=O)[C@@H](N)CCCNC(=N)N)CSSC[C@@H](C(=O)N[C@@H](Cc2ccccc2)C(=O)O)NC1=O [BT45] (H-RCTKSIPPICF-OH; disulfide 2-10; C-terminus assumed)

// result
[7.2, 6.3]

---

Exercise: for every item that follows, state its recorded Residual activity of elastase.
Molecular target: UniProt:P00772
Sequence (P00772 27-266): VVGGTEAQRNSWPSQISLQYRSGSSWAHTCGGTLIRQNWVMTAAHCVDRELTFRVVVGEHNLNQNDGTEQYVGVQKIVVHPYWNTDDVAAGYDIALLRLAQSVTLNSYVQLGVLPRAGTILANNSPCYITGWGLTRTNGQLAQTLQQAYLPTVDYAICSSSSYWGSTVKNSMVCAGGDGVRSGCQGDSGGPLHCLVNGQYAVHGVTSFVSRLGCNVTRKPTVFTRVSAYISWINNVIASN
Experiment: Elastase inhibitory activity of peptides (AAApNA hydrolysis; IC50, Ki, residual activity)
Type: biochemical
Conditions: peptide 1 μM; elastase 0.5 μM, AAApNA 1 mM
Bridge positions count the residues as written; N and C are the ends. Peptide text beside a SMILES is read from it.

Parameters: items (list). Returns: Residual activity of elastase for each item.
1. CC[C@H](C)[C@H](N)C(=O)N[C@H]1CSSC[C@@H](C(=O)N[C@@H](CCC(N)=O)C(=O)O)NC(=O)[C@H]([C@@H](C)CC)NC(=O)[C@@H]2CCCN2C(=O)[C@@H]2CCCN2C(=O)[C@H]([C@@H](C)CC)NC(=O)[C@H](CO)NC(=O)[C@H](C)NC(=O)[C@H]([C@@H](C)O)NC1=O [EC23] (H-ICTASIPPICQ-OH; disulfide 2-10; C-terminus assumed)
2. CC[C@H](C)[C@@H]1NC(=O)[C@@H]2CCCN2C(=O)[C@@H]2CCCN2C(=O)[C@H]([C@@H](C)CC)NC(=O)[C@H](CO)NC(=O)[C@H](C)NC(=O)[C@H]([C@@H](C)O)NC(=O)[C@@H](NC(=O)[C@@H](N)CC(C)C)CSSC[C@@H](C(=O)N[C@@H](CCC(N)=O)C(=O)O)NC1=O [EC12] (H-LCTASIPPICQ-OH; disulfide 2-10; N-terminus and C-terminus assumed)
3. CC[C@H](C)[C@@H]1NC(=O)[C@@H]2CCCN2C(=O)[C@@H]2CCCN2C(=O)[C@H]([C@@H](C)CC)NC(=O)[C@H](CO)NC(=O)[C@H](C)NC(=O)[C@H]([C@@H](C)O)NC(=O)[C@@H](NC(=O)[C@@H](N)C(C)C)CSSC[C@@H](C(=O)N[C@@H](CCC(N)=O)C(=O)O)NC1=O [EC22] (H-VCTASIPPICQ-OH; disulfide 2-10; C-terminus assumed)

// result
["15.1 ± 0.9%", "12.7 ± 1.0%", "20.4 ± 1.2%"]
